B1: ZNF8 (parent)
chain: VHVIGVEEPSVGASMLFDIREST

- Variants of: B1
- Protocol: protein stability index of a GFP-peptide fusion (GPS, HEK-293T) (PSI 1-6); higher = more stable;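 also: lentivirally expressed fusions sorted by FACS into six bins by GFP to DsRed ratio, PSI derived from sequencing read proportions per bin multiplied by bin number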
- Condition parameters: c terminus: native
Reported metric: protein stability index
Number only, please.

Form field: reported protein stability index of A13R
1.97

Form field: reported protein stability index of V3T
3.08

Form field: reported protein stability index of M15Q
2.75

Form field: reported protein stability index of E8Y
2.87

Form field: reported protein stability index of F17C
2.71

Form field: reported protein stability index of S22L
1.68

Form field: reported protein stability index of H2I
2.56

Form field: reported protein stability index of T23F
1.61

Form field: reported protein stability index of V3N
3.89

Form field: reported protein stability index of D18R
1.59

Form field: reported protein stability index of V1E
4.18

Form field: reported protein stability index of F17N
3.33

Form field: reported protein stability index of V6S
2.75

Form field: reported protein stability index of E8H
2.08

Form field: reported protein stability index of M15F
1.62

Form field: reported protein stability index of H2L
2.9

Form field: reported protein stability index of G12L
1.52

Form field: reported protein stability index of V11K
2.27

Form field: reported protein stability index of V3Y
1.54

Form field: reported protein stability index of S10M
1.52

Form field: reported protein stability index of A13Y
1.66

Form field: reported protein stability index of V1A
3.67

Form field: reported protein stability index of E7T
1.61

Form field: reported protein stability index of M15K
3.24

Form field: reported protein stability index of A13P
2.51

Form field: reported protein stability index of E21Y
2.4

Form field: reported protein stability index of V6E
2.99

Form field: reported protein stability index of G5I
2.51

Form field: reported protein stability index of G5L
3.04

Form field: reported protein stability index of R20T
2.4

Form field: reported protein stability index of V6Q
2.64

Form field: reported protein stability index of E21V
1.78

Form field: reported protein stability index of S14G
1.92

Form field: reported protein stability index of G5H
1.6

Form field: reported protein stability index of L16E
3.17

Form field: reported protein stability index of F17I
1.74

Form field: reported protein stability index of I4A
3.55

Form field: reported protein stability index of P9G
2.31

Form field: reported protein stability index of L16P
2.48

Form field: reported protein stability index of S10D
2.48

Form field: reported protein stability index of D18A
1.69

Form field: reported protein stability index of V11L
1.85

Form field: reported protein stability index of S14Q
2.12

Form field: reported protein stability index of S10R
1.71

Form field: reported protein stability index of P9M
2.09

Form field: reported protein stability index of L16N
3.6

Form field: reported protein stability index of A13K
2.2

Form field: reported protein stability index of G5D
3.11

Form field: reported protein stability index of S22V
1.55

Form field: reported protein stability index of L16R
2.98

Form field: reported protein stability index of V3M
2.84

Form field: reported protein stability index of F17V
2.21

Form field: reported protein stability index of V11C
1.91

Form field: reported protein stability index of V1Y
2.29

Form field: reported protein stability index of E8L
2.75

Form field: reported protein stability index of V3P
3.49

Form field: reported protein stability index of T23A
2.01

Form field: reported protein stability index of T23S
2.48

Form field: reported protein stability index of A13M
1.57

Form field: reported protein stability index of S22Q
2.2

Form field: reported protein stability index of L16V
2

Form field: reported protein stability index of D18L
3

Form field: reported protein stability index of V3D
3.95

Form field: reported protein stability index of M15Y
2.2

Form field: reported protein stability index of D18F
2.25

Form field: reported protein stability index of L16W
1.41

Form field: reported protein stability index of I19R
2.7

Form field: reported protein stability index of M15N
2.75

Form field: reported protein stability index of S10P
2.03

Form field: reported protein stability index of L16D
3.53

Form field: reported protein stability index of V6R
2.35

Form field: reported protein stability index of P9H
1.74

Form field: reported protein stability index of E7A
1.69

Form field: reported protein stability index of V6A
2.52

Form field: reported protein stability index of M15S
2.78

Form field: reported protein stability index of H2A
2.67

Form field: reported protein stability index of P9F
2.45

Form field: reported protein stability index of T23M
2.14

Form field: reported protein stability index of V3I
1.84

Form field: reported protein stability index of V6P
1.82

Form field: reported protein stability index of E8K
2.11

Form field: reported protein stability index of S10C
1.85
